Attribution: the kinase profiling compilation of Christmann-Franck et al. (2016)

target: FGFR1 (human) (UniProt P11362); details: compound 10.0 µM
Sequence (P11362 whole entry, looked up): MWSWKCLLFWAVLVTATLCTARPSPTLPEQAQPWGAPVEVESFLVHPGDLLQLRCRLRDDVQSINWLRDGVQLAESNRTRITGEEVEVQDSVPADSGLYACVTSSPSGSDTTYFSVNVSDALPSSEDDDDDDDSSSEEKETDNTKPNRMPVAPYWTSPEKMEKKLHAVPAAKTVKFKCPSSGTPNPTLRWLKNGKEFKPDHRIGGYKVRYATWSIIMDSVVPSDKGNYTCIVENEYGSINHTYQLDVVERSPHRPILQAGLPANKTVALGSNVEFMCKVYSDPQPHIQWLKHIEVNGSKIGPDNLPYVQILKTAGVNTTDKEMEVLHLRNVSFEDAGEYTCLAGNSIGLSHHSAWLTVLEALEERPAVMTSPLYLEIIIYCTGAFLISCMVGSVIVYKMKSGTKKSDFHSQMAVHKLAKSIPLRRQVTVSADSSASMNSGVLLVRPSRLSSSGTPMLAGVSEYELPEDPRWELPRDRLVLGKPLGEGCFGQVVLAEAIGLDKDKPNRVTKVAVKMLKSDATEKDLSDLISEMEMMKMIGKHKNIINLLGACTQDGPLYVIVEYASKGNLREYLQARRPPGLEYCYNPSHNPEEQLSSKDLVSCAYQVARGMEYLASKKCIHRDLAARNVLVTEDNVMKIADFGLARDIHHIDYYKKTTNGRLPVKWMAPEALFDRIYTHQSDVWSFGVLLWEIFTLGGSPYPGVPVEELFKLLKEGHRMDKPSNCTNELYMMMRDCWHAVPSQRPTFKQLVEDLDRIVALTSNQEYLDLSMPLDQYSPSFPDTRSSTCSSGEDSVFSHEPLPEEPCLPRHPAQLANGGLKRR
valueKind: inhibition (%)
Give a bare numeral; the unit % is implied.

Name the recorded inhibition for N#C/C(=C\c1ccc(O)c(O)c1)C(=O)NCc1ccccc1 .
0

Follow-up entry: CC1=C(O)C(=O)[C@@H]2OC2C1=O (stereo partly specified)
3

Record: Nc1ccc(-c2cccc3c(=O)cc(N4CCOCC4)oc23)cc1
12

Now consider COc1cc2nccc(Oc3ccc(NC(=O)Nc4ccc(F)cc4F)c(F)c3)c2cc1OC and answer again.
68

// same read-out, input: Cn1cc(C2=C(c3cn(CCCSC(=N)N)c4ccccc34)C(=O)NC2=O)c2ccccc21
31

Consider next the molecule O=C1c2ccccc2-c2n[nH]c3cccc1c23 in the same way.
1
